IC50 by entry:
# System: TNFα production
# experiment.summary: PBMC test: TNFα production by LPS-stimulated human peripheral blood mononuclear cells
# Assay type: cell-based
# protocol.conditions: Homo sapiens, PBMC

{"columns": ["compound", "target.system", "result"],
 "data": [
  ["Cc1ccc(NC(=O)c2cccc(N(C)C)c2)cc1NC(=O)c1ccc(Cl)nc1 [Example 1]", "TNFα production", "~9 µM"],
  ["Cc1ccc(NC(=O)c2ccnc(N3CCOCC3)c2)cc1NC(=O)c1ccc(NCCC2CCCN2C)nc1 (stereo not shown) [Example 22(18)]", "TNFα production", "~0.3 µM"],
  ["N#Cc1ccc(C(=O)Nc2ccc(Cl)c(NC(=O)c3ccc4ncccc4c3)c2)cc1 [Example 10]", "TNFα production", "~2 µM"]
]}

// switching to the query compound
query: Quickly give me recorded IC50 for Cc1ccc(NC(=O)c2cccc(N(C)C)c2)cc1NC(=O)c1ccc2ncsc2c1 [Example 8, Compound No. 2]
result: ~5 µM

###

# target.system: p38α (Homo sapiens, UniProt Q16539)
# Construct: c-myc (N); 6His (N)
# Sequence (Q16539 whole entry): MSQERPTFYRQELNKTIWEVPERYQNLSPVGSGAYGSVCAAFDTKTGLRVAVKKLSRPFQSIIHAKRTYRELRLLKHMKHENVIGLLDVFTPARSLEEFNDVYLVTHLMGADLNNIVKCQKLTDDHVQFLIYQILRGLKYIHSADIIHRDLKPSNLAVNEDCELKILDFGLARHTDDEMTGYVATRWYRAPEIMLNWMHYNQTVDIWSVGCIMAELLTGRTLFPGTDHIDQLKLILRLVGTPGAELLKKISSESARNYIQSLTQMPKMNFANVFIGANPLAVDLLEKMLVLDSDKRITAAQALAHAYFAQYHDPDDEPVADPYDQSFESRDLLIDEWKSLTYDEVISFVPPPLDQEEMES
# experiment.summary: In vitro enzyme assay, p38α isoform
# protocol.conditions: read-out: IC50 against p38α
IC50 by entry:

{"columns": ["compound", "target.system", "IC50"],
 "data": [
  ["Cc1ccc(NC(=O)c2ccnc(N3CCOCC3)c2)cc1NC(=O)c1ccc(NCCCN(C)C)nc1", "p38α (Homo sapiens, UniProt Q16539)", "~50 nM"],
  ["Cc1ccc(NC(=O)c2cccc(N(C)C)c2)cc1NC(=O)c1ccc(Cl)nc1", "p38α (Homo sapiens, UniProt Q16539)", "~1000 nM"],
  ["N#Cc1ccc(C(=O)Nc2ccc(Cl)c(NC(=O)c3ccc4ncccc4c3)c2)cc1", "p38α (Homo sapiens, UniProt Q16539)", "~50 nM"],
  ["Cc1ccc(NC(=O)c2ccnc(N3CCOCC3)c2)cc1NC(=O)c1ccc(NCCC2CCCN2C)nc1 (centres unmarked)", "p38α (Homo sapiens, UniProt Q16539)", "~50 nM"]
]}

query: Quickly give me recorded IC50 for Cc1ccc(NC(=O)c2cccc(N(C)C)c2)cc1NC(=O)c1ccc2ncsc2c1
result: ~100 nM
